Listed here are binders together with their documented GLP-1R EC50 (pM) [Assay (I)(a)], CRE luciferase reporter, BHK cells.
Target: human GLP-1 receptor (human, UniProt P43220 24-463)
Assay: cell-based or functional assay
Starred links: 1 amine or outer side, 2 acyl side, 3 side chain; linkers in the order of their positions; H or OH if unused. Non-standard residues stand in square brackets, D forms with d. Groups on a side chain read outwards from the residue. No end group written: not given here. *: point of attachment. C18 diacid = O=C(O)CCCCCCCCCCCCCCCCC(=O)*; γGlu = O=C(O)[C@H](CCC(=O)[*:2])N[*:1]; Ac4c = NC1(C(=O)O)CCC1; AEEA = NCCOCCOCC(=O)O; Aib = CC(C)(N)C(=O)O
MEASUREMENT KIND: GLP-1R EC50 (pM) [Assay (I)(a)], CRE luciferase reporter, BHK cells

• H[Ac4c]QGTFTSDLSKYLESRRAREFVQWLIK([γGlu-γGlu-AEEA-AEEA-γGlu-γGlu-C18 diacid])T-NH2 (also called Chem. 13; Chem 13) = 4
• H[Ac4c]QGTFTSDLSKYLESRRAREFVQWLIK([AEEA-AEEA-γGlu-γGlu-C18 diacid])T-NH2 (also called Chem. 18; Chem 18) = 4
• HXQGTFTSDYSRYLESRRARDFVQWLIKT (Aib at position 2; epsilon-N of Lys28 acylated with the substituent given in the name (17-carboxyheptadecanoyl-2xgGlu-Ado-gGlu-Ado-gGlu-Ado-gGlu-); C-terminal amide, also called Chem. 37; Chem 37) = 4
• H[Aib]QGTFTSDLSKYLDARRARDFVQWLIK([γGlu-γGlu-γGlu-C18 diacid])T-NH2 (also called Chem. 15; Chem 15) = 4
• HXQGTFTSDYSRYLESRRARDFVQWLIKT (Acb at position 2; epsilon-N of Lys28 acylated with the substituent given in the name (17-carboxyheptadecanoyl-2xgGlu-Ado-gGlu-Ado-gGlu-Ado-gGlu-); C-terminal amide, also called Chem. 36; Chem 36) = 4
• H[Ac4c]QGTFTSDLSKYLESRRAREFVQWLIK([Gly-Ser-Glu-Gly-Ser-γGlu-γGlu-C18 diacid])T-NH2 (also called Chem. 16; Chem 16) = 5
• H[Aib]QGTFTSDLSRYLDARRARDFVQWLIK([γGlu-γGlu-γGlu-C18 diacid])T-NH2 (also called Chem. 14; Chem 14) = 2

Data origin: patent US20170101454A1
